B1: ZNF263 (parent)
chain: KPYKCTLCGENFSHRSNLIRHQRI

# Variants of: B1
# measurement_description: protein stability index of a GFP-peptide fusion (GPS, HEK-293T) (PSI 1-6); higher = more stable;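 note: lentivirally expressed fusions sorted by FACS into six bins by GFP to DsRed ratio, PSI derived from sequencing read proportions per bin multiplied by bin number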
# condition_label: c terminus: a fixed tail appended
Known protein stability index of a selection of variants

mutation_name	protein stability index
I24F	1.93
I24T	2.64
K1V	1.56
I24E	3.68
L18R	2.81
Y3A	1.9
L7D	3.02
G9D	2.01
F12L	2.1
E10K	3.4
E10H	2.71
G9E	2.29
R15L	2.45
K4S	1.9
L7Y	3.25
H14Y	3.16
K4T	2.52
R15G	2.08
E10T	2.06
L18V	2.59
E10I	2.35
C5G	2.22
H21R	1.78
S16K	3.28
R15K	2.28
C8S	4.1
T6D	2.7
H14M	2.55
K4G	2.35
H14L	2.73
N11E	3.23
T6F	2.61
K1M	2.65
H14F	2.23
S16M	2.26
F12W	2.12
F12N	1.96
I24K	2.89
I19P	2.11
R23Y	2.57
F12I	2.41
C8G	2.45
Q22C	2.44
C8E	2.48
Q22Y	2.91
Q22V	2.29
L18P	1.88
F12P	1.57
S13K	2.38
N11P	1.8
T6H	3.1
S13G	2.59
C8Y	2.41
P2S	2.59
K4F	2.01
H21F	2.34
P2W	2.05
H21Q	1.14
L18S	1.77
Y3C	2.47
H21M	2.72
R23E	2.67
C5T	2.09
Q22G	1.86
R15T	1.59
L18N	2.21
K1G	2.27
F12M	2.01
L18Y	2.38
K1E	3.25
R20A	2.43
S13T	2.13
N11G	2.52
F12K	1.58
R20W	1.76
F12T	1.66
L7I	3.06
C8D	2.62
S13R	3.45
H14R	2.41
R23V	2.01
L7E	3.63
R15H	2.15
R15N	2.1
R23S	2.28
G9I	4
N17F	2.08
L7A	3.07
H14V	2.43
G9C	2.16
N11F	2.61
